Exercise: for every item that follows, state its recorded MIC (μg/mL in CAA/HuS).
system: P. aeruginosa; assay: Minimal inhibitory concentration (MIC), modified CLSI broth microdilution in CAA or CAA/HuS; type: cell-based, Pseudomonas aeruginosa; settings: CAA supplemented with 25% human serum
Numbers only, in µg/mL.

>>> reportedresult("GN17: Native lysin, GenBank ACD38663.1, SEQ ID NO: 24 (protein, listed as Pseudomonas aeruginosa) MTLRYGDRSQEVRQLQRRLNTWAGANLYEDGHFGAATEDAVRAFQRSHGLVADGIAGPKTLAALGGADCSHLLQNADLVAAATRLGLPLATIYAVNQVESNGQGFLGNGKPAILFERHIMYRRLAAHDQVTADQLAAQFPALVNPRPGGYAGGTAEHQRLANARQIDDTAALESASWGAFQIMGFHWQRLGYISVQAFAEAMGRSESAQFEAFVRFIDTDPALHKALKARKWADFARLYNGPDYKRNLYDNKLARAYEQHANCAEASA")
16

Query GN94: Modified GN37, N-terminal peptide KFFKFFKFFK with linker, SEQ ID NO: 14 (protein) KFFKFFKFFKAGAGAGAGAGAGAGAGASMTYTLSKRSLDNLKGVHPDLVAVVHRAIQLTPVDFAVIEGLRSVSRQKELVAAGASKTMNSRHLTGHAVDLAAYVNGIRWDWPLYDAIAVAVKAAAKELGVAIVWGGDWTTFKDGPHFELDRSKYR yields MIC (μg/mL in CAA/HuS) of 2
